Exercise: state measured pKd for each of the binders provided.
molecular target: CV S-protein construct 6 trimer TP31001F (SARS-CoV-2, UniProt P0DTC2 14-1208); assay: SPR
Give bare numbers, as −log10 of the molar value.

Below, each entry is followed by its recorded pKd result.
>  <binder>
variant 5-37 (Fc fusion) VHH: EVQLVESGGGLVQPGGSLRLSCAASGSTFSINAMGWFRQAPGKEREFVGGISRSGATTNYADSVKGRFTISADNSKNTAYLQMNSLKPEDTAVYYCAADGVPEYSDYASGPVWGQGTLVTVSS

>  <pKd>
8.74

$$$$
>  <binder>
variant 6-37 (Fc fusion) VHH: EVQLVESGGGLVQPGGSLRLSCAASGHTFSTSWMGWFRQAPGKEREFVATINSLGGTNYADSVKGRFTISADNSKNTAYLQMNSLKPEDTAVYYCARVSSGDYGMDVWGQGTLVTVSS

>  <pKd>
9.15

$$$$
>  <binder>
variant 6-34 (Fc fusion) VHH: EVQLVESGGGLVQPGGSLRLSCAASGSAFRSNAMGWFRQAPGKEREFVAHISWSSKSTYYADSVKGRFTISADNSKNTAYLQMNSLKPEDTAVYYCATYCSSTSCFDYWGQGTLVTVSS

>  <pKd>
9.15

$$$$

We next turn to a different binder, shown below.
Q) Could you share which pKd value was measured for variant 5-20 (Fc fusion) VHH: EVQLVESGGGLVQPGGSLRLSCAASGRTIVPYTMGWFRQAPGKERELVAAISPSAFTEYADSVKGRFTISADNSKNTAYLQMNSLKPEDTAVYYCAARRWGYDWGQGTLVTVSS ?
A) 8.96
